# maps each entry to its GI50
tested on: DLD-1; assay: NCI tumour cell line growth inhibition, 48 h
Active and inactive are the calls of the source. Rule as the data show it: active = GI50 up to about 1.1 µM and inactive = higher.

Worked set:
C/C=C(/C)C(=O)O[C@H]1[C@H](O)CC(c2ccc3c(c2O)C(=O)C2=C(O)C4(OC)C(=O)C(C(N)=O)=C(O)[C@H](CC(=O)c5ccccc5O)C4CC2[C@@]3(C)OC)O[C@@H]1C (stereo partly drawn)
0.01 µM (active)
COc1ccc(C2[C@@H](Cl)C(=O)N2c2ccc(OC)cc2)cc1 (stereo partly drawn)
89.5 µM (inactive)
C=C1C(=O)O[C@@H]2[C@H](O)[C@@H](C)[C@@H]3C=CC(=O)[C@@]3(C)[C@H](OC(=O)C=C(C)C)[C@H]12
0.277 µM (active)

Let's switch to this molecule now.
Lab note: record GI50 of CC1=CC[C@@H](C(C)(C)O)C[C@@H]1O tested on DLD-1.
> 5000 µM (inactive)
